Protein target, amino acids: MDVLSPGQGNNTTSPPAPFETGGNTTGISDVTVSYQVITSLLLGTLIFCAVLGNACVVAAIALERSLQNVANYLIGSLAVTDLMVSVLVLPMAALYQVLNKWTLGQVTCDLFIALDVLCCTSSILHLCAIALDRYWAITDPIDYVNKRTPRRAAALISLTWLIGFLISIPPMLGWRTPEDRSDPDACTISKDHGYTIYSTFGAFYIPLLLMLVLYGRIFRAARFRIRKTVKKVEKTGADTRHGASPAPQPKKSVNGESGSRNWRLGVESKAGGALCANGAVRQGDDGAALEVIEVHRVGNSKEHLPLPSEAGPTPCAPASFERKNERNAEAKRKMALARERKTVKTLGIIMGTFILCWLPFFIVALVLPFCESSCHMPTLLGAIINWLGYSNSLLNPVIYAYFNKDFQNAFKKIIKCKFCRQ
measured_parameter: pKi
Answers are plain numbers, as −log10 of the molar value.

Use the examples below as a reference point.
Cc1cccc(N2CCN(CCCCNC(=O)c3cc4ccccc4cn3)CC2)c1 8.10
O=C(NCCCCN1CCN(c2ccccc2)CC1)c1cccnc1 7.07
Cc1cccc(N2CCN(CCCCNC(=O)c3ccc4ccccc4n3)CC2)c1 7.74
O=C(NCCCCN1CCN(c2ccccn2)CC1)c1cc2ccccc2cn1 7.80

For every record below, what is its pKi?
1. Cc1cccc(N2CCN(CCCCNC(=O)[C@@H]3CCc4ccccc4N3)CC2)c1
2. O=C(NCCCCN1CCN(c2ccccc2F)CC1)c1cc2ccccc2o1

(A)
1. 7.37
2. 7.82

For every record below, what is its pKi?
1. COc1cccc(N2CCN(CCCCNC(=O)c3cccc(C)n3)CC2)c1
2. Cc1cccc(N2CCN(CCCCNC(=O)[C@H]3CCc4ccccc4N3)CC2)c1
3. O=C(NCCCCN1CCN(c2ccccc2)CC1)c1ccc2ccccc2n1

(A)
[7.36, 6.93, 7.03]

###

target: hERG (KCNH2) (Homo sapiens, UniProt Q12809); assay: Inhibition of human ERG at 3 uM by whole cell based electrophysiology assay
Sequence (Q12809 whole entry): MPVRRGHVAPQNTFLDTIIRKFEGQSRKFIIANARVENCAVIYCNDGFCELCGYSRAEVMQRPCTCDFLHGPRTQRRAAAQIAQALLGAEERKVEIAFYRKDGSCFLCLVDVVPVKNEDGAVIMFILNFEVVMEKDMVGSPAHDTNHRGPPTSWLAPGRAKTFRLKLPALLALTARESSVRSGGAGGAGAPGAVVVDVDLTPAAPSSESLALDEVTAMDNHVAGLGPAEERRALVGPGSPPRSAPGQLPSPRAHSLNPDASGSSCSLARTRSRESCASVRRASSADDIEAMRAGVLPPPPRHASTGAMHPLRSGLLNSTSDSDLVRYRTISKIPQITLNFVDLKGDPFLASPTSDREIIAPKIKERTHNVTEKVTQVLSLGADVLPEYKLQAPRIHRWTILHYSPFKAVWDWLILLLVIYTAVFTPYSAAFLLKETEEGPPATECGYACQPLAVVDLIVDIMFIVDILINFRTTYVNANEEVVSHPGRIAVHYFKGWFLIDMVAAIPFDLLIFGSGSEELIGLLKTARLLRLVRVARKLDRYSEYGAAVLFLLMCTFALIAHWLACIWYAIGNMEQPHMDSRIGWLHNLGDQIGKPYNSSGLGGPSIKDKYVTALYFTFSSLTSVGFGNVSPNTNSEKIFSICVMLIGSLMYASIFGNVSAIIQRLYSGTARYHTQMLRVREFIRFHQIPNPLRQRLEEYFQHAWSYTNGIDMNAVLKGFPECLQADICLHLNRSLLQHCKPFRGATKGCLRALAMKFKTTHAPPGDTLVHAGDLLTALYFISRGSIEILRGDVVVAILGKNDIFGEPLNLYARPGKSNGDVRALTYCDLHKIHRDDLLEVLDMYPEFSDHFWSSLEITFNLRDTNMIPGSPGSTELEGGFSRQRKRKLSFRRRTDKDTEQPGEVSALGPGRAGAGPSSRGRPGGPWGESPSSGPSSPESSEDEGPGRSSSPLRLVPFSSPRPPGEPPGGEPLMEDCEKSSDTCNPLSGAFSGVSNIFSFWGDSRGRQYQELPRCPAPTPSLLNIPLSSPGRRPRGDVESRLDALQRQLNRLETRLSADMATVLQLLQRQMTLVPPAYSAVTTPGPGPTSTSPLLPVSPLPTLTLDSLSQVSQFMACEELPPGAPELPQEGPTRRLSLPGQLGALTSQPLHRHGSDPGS
measured_parameter: inhibition at 3 µM
Report the figure along with its unit, number first.

(Q) Query for hERG (KCNH2) (Homo sapiens, UniProt Q12809): what inhibition at 3 µM does the record show for O=C(NCCCCN1CCN(c2ccccc2)CC1)c1ccc2ncccc2c1 ?
(A) 24%

###

This document collects pKi values reported for UniProt P08908.
Give bare numbers, as −log10 of the molar value.

Use the examples below as a reference point.
COc1cccc(N2CCN(CCCCNC(=O)c3cc4ccccc4n3C)CC2)c1 8.00
COc1cccc(N2CCN(CCCCNC(=O)c3ccccn3)CC2)n1 8.10
COc1cccc(N2CCN(CCCCNC(=O)c3cc4ccccc4cn3)CC2)c1 8.10

For every record below, what is its pKi?
1. Cc1cccc(N2CCN(CCCCNC(=O)c3ccccc3)CC2)n1
2. O=C(NCCCCN1CCN(c2ccccc2)CC1)c1ccccn1

(A)
[8.52, 7.28]

###

species: Mus musculus; settings: in vivo, sc, 0.5 h
Description: Effect on spontaneous exploratory locomotor activity in sc dosed NMRI mouse measured for 30 mins with activity counts each 5 mins
Kindly state MED for each of the entries shown.

Cc1cccc(N2CCN(CCCCNC(=O)c3ccccc3)CC2)n1 > 3 mg/kg

We now examine a further compound.
(Q) GET /values?readout=MED&item= COc1cccc(N2CCN(CCCCNC(=O)c3ccccn3)CC2)n1
(A) > 3 mg/kg
